target: Raf-RBD/KRAS G12D interaction (Homo sapiens (Human), UniProt P01116, G12D); test: KRAS G12D NanoBRET assay; conditions: HCT116
Sequence (P01116-2 other isoform, or with tags, fused parts or gaps G12D): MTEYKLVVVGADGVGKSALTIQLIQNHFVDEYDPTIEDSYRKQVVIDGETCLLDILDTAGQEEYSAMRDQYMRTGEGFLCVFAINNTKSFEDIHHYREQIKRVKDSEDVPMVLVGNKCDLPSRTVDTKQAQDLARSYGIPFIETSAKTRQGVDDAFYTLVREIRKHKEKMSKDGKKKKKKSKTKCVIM
pIC50: −log10 of the molar value.
For each of the compounds below, state its pIC50.

Input: Please give the measured pIC50 for this compound: Cc1cc(N)nc(-c2cc3ncnc4c3c(c2Cl)OCCN4C2CCNC2)c1C(F)(F)F (stereo not drawn) [Example 506]
Output: ≤ 5.00

Input: Please give the measured pIC50 for this compound: Cc1cc(N)nc(-c2cc3ncnc4c3c(c2Cl)OC[C@H](CC#N)N4C2CCNC2)c1C(F)(F)F (single isomer, unassigned) [Example 508]
Output: ≤ 5.00

Input: Please give the measured pIC50 for this compound: Cc1cc(N)nc(-c2cc3ncnc4c3c(c2Cl)OCCN4C2CCNC2)c1C(F)(F)F (stereo not drawn) [Example 505]
Output: ≤ 5.00

Input: Please give the measured pIC50 for this compound: C=C1CN2CCC[C@@]2(COc2nc3c4c(c(Cl)c(-c5nc(N)cc(C)c5C(F)(F)F)c(F)c4n2)OCCN3CCN(C)C)C1 (single isomer, unassigned) [Example 513]
Output: 5.59

Input: Please give the measured pIC50 for this compound: Cc1cc(N)nc(-c2cc3ncnc4c3c(c2Cl)OCCN4CCN(C)C)c1C(F)(F)F [Example 501]
Output: ≤ 5.00

Input: Please give the measured pIC50 for this compound: C=C1CN2CCC[C@@]2(COc2nc3c4c(c(Cl)c(-c5nc(N)cc(C)c5C(F)(F)F)cc4n2)OCCN3CCN(C)C)C1 [Example 511]
Output: 5.09

Input: Please give the measured pIC50 for this compound: Cc1cc(N)nc(-c2cc3nc(OCC45CCCN4CCC5)nc4c3c(c2Cl)OCCN4CCN(C)C)c1C(F)(F)F [Example 510]
Output: ≤ 5.00

Input: Please give the measured pIC50 for this compound: Cc1cc(N)nc(-c2cc3nc(OC[C@@H]4C[C@@H](F)CN4C)nc4c3c(c2Cl)OCCN4CCN(C)C)c1C(F)(F)F [Example 509]
Output: 5.01

Input: Please give the measured pIC50 for this compound: C=C1CN2CCC[C@@]2(COc2nc3c4c(c(Cl)c(-c5nc(N)cc(C)c5C(F)(F)F)c(F)c4n2)OCCN3CCN(C)C)C1 (single isomer, unassigned) [Example 514]
Output: ≤ 5.00

Input: Please give the measured pIC50 for this compound: Cc1cc(N)nc(-c2cc3ncnc4c3c(c2Cl)OCCN4CCN(C)CCO)c1C(F)(F)F [Example 502]
Output: ≤ 5.00

Input: Please give the measured pIC50 for this compound: C=C1CN2CCC[C@@]2(COc2nc3c4c(c(F)c(-c5nc(N)cc(C)c5C(F)(F)F)c(F)c4n2)OCCN3CCN(C)C)C1 (single isomer, unassigned) [Example 524]
Output: ≤ 5.00

Input: Please give the measured pIC50 for this compound: CNCCN1CCOc2c(Cl)c(-c3nc(N)cc(C)c3C(F)(F)F)cc3ncnc1c23 [Example 503]
Output: ≤ 5.00

Input: Please give the measured pIC50 for this compound: Cc1cc(N)nc(-c2cc3ncnc4c3c(c2Cl)OC[C@H](CC#N)N4C2CCNC2)c1C(F)(F)F (single isomer, unassigned) [Example 507]
Output: ≤ 5.00

Input: Please give the measured pIC50 for this compound: Cc1cc(N)nc(-c2cc3ncnc4c3c(c2Cl)OCCN4CCN2CCOCC2)c1C(F)(F)F [Example 504]
Output: ≤ 5.00

Input: Please give the measured pIC50 for this compound: C=C1CN2CCC[C@@]2(COc2nc3c4c(c(F)c(-c5nc(N)cc(C)c5C(F)(F)F)c(F)c4n2)OCCN3CCN(C)C)C1 (single isomer, unassigned) [Example 523]
Output: ≤ 5.00
